Every entry's value here was drawn from patent US9428478B2.

test: Stability in liver S9-fractions, human; type: in vitro ADME; settings: read-out: Stability in liver S9-fractions (t ½) Human (converted)
Catalogue of molecules with associated half-life
Give a bare numeral; the unit h is implied.

In the examples that follow, each entry is paired with its recorded half-life.
[
  {
    "molecular.string": "COc1ccc(N2CCN(C(=O)c3cc4cc(C(N)=O)ccc4[nH]3)CC2)cc1",
    "quantitative.readout": 2
  },
  {
    "molecular.string": "COc1ccc(N2CCN(C(=O)c3nc4cc(F)ccc4[nH]3)CC2)cc1",
    "quantitative.readout": 1
  },
  {
    "molecular.string": "COc1ccc(N2CCN(C(=O)c3cc4cc(C(C)=O)ccc4[nH]3)CC2)cc1",
    "quantitative.readout": 0.75
  }
]

In the following, a different molecule is considered.
Which half-life value is on record for COc1ccc(N2CCN(C(=O)c3cc4ccccc4[nH]3)CC2)cc1 ?
4.2

----------
molecular target: Nox2 (Homo sapiens (Human), UniProt P04839); experiment: Nox2 assay in human neutrophils (PMN), LO12 luminescence; type: cell-based; details: Table 3, human neutrophils; read-out: Nox2 (PMN)
Sequence (P04839 whole entry, looked up): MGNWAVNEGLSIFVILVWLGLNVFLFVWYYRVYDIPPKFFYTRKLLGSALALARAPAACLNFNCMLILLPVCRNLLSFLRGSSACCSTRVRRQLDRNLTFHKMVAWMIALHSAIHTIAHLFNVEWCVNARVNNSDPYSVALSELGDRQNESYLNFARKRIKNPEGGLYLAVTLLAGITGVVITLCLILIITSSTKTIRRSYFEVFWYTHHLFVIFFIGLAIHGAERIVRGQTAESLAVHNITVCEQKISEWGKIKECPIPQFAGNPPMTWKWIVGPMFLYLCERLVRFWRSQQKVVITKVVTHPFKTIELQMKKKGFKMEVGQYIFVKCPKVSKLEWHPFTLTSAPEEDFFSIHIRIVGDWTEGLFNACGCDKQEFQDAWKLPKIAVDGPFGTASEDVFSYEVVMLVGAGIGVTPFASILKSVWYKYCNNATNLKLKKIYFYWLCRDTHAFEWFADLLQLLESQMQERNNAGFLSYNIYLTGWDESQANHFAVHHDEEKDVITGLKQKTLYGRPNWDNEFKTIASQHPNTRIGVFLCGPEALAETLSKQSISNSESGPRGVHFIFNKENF
Sequence (P13498 whole entry partner, looked up): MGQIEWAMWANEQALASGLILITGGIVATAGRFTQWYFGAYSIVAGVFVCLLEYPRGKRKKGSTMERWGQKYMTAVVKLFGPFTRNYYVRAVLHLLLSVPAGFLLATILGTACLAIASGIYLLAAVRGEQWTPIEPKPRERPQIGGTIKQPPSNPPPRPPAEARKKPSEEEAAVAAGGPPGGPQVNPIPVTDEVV
Catalogue of compounds with associated pIC50
Answer as the number alone; pIC50 is minus log10 of concentration in mol/L.

[
  {
    "compound": "CCN(CC)CCNCc1c(C(=O)N2CCN(c3ccc(OC)cc3)CC2)[nH]c2ccc(F)cc12 [TG6-298]",
    "pIC50": 6.70
  },
  {
    "compound": "COc1ccc(N2CCN(C(=O)c3[nH]c4ccc(F)cc4c3CNC3CCN(C)CC3)CC2)cc1 [TG7-32]",
    "pIC50": 6.70
  },
  {
    "compound": "COc1ccc(N2CCN(C(=O)c3nc4cc(F)ccc4[nH]3)CC2)cc1 [TG6-179-3]",
    "pIC50": 6.40
  },
  {
    "compound": "COc1ccc(N2CCN(C(=O)c3cc4cc(C(N)=O)ccc4[nH]3)CC2)cc1 [TG6-227]",
    "pIC50": 7.00
  },
  {
    "compound": "COc1ccc(N2CCN(C(=O)c3cc4ccccc4[nH]3)CC2)cc1 [TG6-225]",
    "pIC50": 6.70
  }
]

Which pIC50 value is on record for CCN1CCN(Cc2c(C(=O)N3CCN(c4ccc(OC)cc4)CC3)[nH]c3ccc(F)cc23)CC1 [TG7-33] ?
6.15

Which pIC50 value is on record for CCN(CC)Cc1c(C(=O)N2CCN(c3ccc(OC)cc3)CC2)[nH]c2ccc(F)cc12.Cl [TG7-34] ?
6.30

Which pIC50 value is on record for COc1ccc(N2CCN(C(=O)c3[nH]c4ccc(F)cc4c3CN3CCOCC3)CC2)cc1.Cl [TG7-31] ?
6.70

Which pIC50 value is on record for COc1ccc(N2CCN(C(=O)c3cc4cc(C(C)=O)ccc4[nH]3)CC2)cc1 [TG6-161] ?
6.70

----------
molecular target: UniProtKB P04839; assay: Nox2 assay in human neutrophils (PMN), LO12 luminescence; type: cell-based; conditions: read-out: IC50, ROS production in human neutrophils
pIC50: −log10 of the molar value.
measured.parameter: pIC50

Which pIC50 value is on record for COc1ccc(N2CCN(C(=O)c3cc4cc(C(C)=O)ccc4[nH]3)CC2)cc1 ?
6.52 to 6.70

----------
biological target: Nox2 (Homo sapiens (Human)); assay: Nox2 activity assay for primary screening (cell free, human neutrophil plasma membranes, LO12 luminescence); assay type: biochemical; conditions: read-out: IC50, Nox2 cell free system
Sequence (P04839 2-570): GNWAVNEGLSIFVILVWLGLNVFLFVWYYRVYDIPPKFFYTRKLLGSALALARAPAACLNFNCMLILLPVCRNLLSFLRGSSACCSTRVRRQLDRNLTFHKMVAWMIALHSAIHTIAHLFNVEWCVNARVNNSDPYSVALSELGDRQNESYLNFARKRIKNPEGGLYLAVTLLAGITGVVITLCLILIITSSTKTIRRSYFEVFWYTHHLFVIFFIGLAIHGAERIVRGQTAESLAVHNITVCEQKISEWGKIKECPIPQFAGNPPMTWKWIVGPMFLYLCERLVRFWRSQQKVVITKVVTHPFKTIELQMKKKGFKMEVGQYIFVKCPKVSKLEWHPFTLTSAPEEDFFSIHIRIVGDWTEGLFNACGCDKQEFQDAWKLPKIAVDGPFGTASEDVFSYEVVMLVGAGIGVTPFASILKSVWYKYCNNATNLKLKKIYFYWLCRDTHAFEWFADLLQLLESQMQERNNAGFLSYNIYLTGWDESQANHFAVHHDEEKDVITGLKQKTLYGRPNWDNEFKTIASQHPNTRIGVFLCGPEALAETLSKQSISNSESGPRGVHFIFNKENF
pIC50: −log10 of the molar value.
measured.parameter: pIC50

Which pIC50 value is on record for COc1ccc(N2CCN(C(=O)c3cc4cc(C(C)=O)ccc4[nH]3)CC2)cc1 [TG6-161] ?
6.52 to 6.70

----------
biological target: Nox2 (Homo sapiens (Human)); test: Nox2 activity assay for primary screening (cell free, human neutrophil plasma membranes, LO12 luminescence); type: biochemical; conditions: Table 2; read-out: IC50 Nox2
measured.parameter: pIC50
Answer as the number alone; pIC50 is minus log10 of concentration in mol/L.

[
  {
    "molecule": "CCOc1ccc(N2CCN(C(=O)c3nc4cc(F)ccc4[nH]3)CC2)cc1",
    "pIC50": 6.10
  },
  {
    "molecule": "COc1ccc(N2CCN(C(=O)c3cc4cc(C(C)=O)ccc4[nH]3)CC2)cc1",
    "pIC50": 6.40
  },
  {
    "molecule": "COc1ccc(N2CCN(C(=O)c3cc4cc(C(C)=O)ccc4[nH]3)CC2)cc1F",
    "pIC50": 5.52
  }
]

Which pIC50 value is on record for COc1ccc(N2CCN(C(=O)c3cc4cc(OC)c(OC)cc4[nH]3)CC2)cc1 ?
6.10

Which pIC50 value is on record for CNC(=O)c1ccc2[nH]c(C(=O)N3CCN(c4ccc(OC)c(F)c4)CC3)cc2c1 ?
5.00

Which pIC50 value is on record for COc1ccc(N2CCN(C(=O)c3cc4cc(O)ccc4[nH]3)CC2)cc1 ?
6.30

Which pIC50 value is on record for COc1ccc(N2CCN(C(=O)c3cnc4cc(C(C)=O)ccc4c3O)CC2)cc1 ?
6.00

Which pIC50 value is on record for COc1ccc(N2CCN(C(=O)c3[nH]c4ccc(C(C)=O)cc4c3C)CC2)cc1 ?
6.00

Which pIC50 value is on record for COC(=O)C1CN(c2ccc(OC)cc2)CCN1C(=O)c1nc2cc(F)ccc2[nH]1 (stereo not shown) ?
6.00

Which pIC50 value is on record for COc1ccc(N2CCN(C(=O)c3cc4cc(C(N)=O)ccc4[nH]3)CC2)cc1 ?
6.15

Which pIC50 value is on record for CC(C)Oc1ccc(N2CCN(C(=O)c3nc4cc(C(N)=O)ccc4[nH]3)CC2)cc1 ?
6.00

Which pIC50 value is on record for COc1ccc(N2CCN(C(=O)c3cc4cc(OC)ccc4[nH]3)CC2)cc1 ?
6.30

Which pIC50 value is on record for COC(=O)c1ccc2[nH]c(C(=O)N3CCN(c4ccc(OC)cc4)CC3)cc2c1 ?
6.52

Which pIC50 value is on record for COc1ccc(N2CCN(C(=O)c3cnc4ccc(F)cc4c3O)CC2)cc1 ?
5.82

Which pIC50 value is on record for CCOc1ccc(N2CCN(C(=O)c3cc4cc(C(C)=O)ccc4[nH]3)CC2)cc1 ?
6.10

Which pIC50 value is on record for COc1ccc(N2CCN(C(=O)c3cc4cc(F)ccc4[nH]3)CC2)cc1 ?
5.30

Which pIC50 value is on record for COc1ccc(N2CCN(C(=O)c3nc4cc(F)ccc4[nH]3)CC2)cc1 ?
6.15

Which pIC50 value is on record for CC(=O)c1ccc2[nH]c(C(=O)N3CCN(c4ccc(OC(C)C)cc4)CC3)cc2c1 ?
6.00

Which pIC50 value is on record for COc1ccc(N2CCN(C(=O)c3[nH]c4ccc(F)cc4c3C)CC2)cc1 ?
6.15

----------
Consider the following pIC50 values measured on UniProt P47989.
Sequence (P47989 whole entry, species assumed): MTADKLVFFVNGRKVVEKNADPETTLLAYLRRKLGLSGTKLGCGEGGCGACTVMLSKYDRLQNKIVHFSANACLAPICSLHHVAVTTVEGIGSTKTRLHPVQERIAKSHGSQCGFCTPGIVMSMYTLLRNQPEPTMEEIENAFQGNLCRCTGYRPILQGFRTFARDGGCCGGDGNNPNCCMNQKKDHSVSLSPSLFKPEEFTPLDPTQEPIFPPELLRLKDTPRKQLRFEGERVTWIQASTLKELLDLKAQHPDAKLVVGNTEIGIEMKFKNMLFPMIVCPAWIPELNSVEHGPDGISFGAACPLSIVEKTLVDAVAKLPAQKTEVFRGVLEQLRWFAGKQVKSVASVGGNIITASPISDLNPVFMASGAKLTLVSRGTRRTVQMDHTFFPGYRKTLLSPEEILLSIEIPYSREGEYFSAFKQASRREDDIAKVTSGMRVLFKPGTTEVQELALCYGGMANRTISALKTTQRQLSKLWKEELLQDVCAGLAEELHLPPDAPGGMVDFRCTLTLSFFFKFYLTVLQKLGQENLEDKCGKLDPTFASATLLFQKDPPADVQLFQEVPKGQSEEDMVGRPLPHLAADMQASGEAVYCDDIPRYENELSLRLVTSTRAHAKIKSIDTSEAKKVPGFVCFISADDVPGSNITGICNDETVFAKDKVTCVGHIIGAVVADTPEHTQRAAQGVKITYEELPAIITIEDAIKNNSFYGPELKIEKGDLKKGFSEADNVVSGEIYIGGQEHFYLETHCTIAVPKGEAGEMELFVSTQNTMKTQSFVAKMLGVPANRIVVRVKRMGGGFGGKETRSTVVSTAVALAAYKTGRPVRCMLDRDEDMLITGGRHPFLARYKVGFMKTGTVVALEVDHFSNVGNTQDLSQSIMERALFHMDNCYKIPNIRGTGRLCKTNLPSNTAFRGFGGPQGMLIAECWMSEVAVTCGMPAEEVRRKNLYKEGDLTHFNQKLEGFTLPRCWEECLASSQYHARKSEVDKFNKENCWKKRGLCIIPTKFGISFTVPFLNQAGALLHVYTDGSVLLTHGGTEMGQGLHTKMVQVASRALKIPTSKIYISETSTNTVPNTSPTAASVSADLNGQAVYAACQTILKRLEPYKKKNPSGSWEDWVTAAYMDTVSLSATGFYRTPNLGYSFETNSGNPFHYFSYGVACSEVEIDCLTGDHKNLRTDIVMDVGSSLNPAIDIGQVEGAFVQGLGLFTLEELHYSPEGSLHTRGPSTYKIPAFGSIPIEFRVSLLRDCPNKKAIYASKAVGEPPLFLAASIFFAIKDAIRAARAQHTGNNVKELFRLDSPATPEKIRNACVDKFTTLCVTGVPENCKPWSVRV
pIC50: −log10 of the molar value.

[
  {
    "molecular.string": "COc1ccc(N2CCN(C(=O)c3cc4cc(C(=O)O)ccc4[nH]3)CC2)cc1",
    "measured.on": "UniProt P47989",
    "pIC50": "< 4.70"
  },
  {
    "molecular.string": "COc1ccc(N2CCN(C(=O)c3nc4cc(F)ccc4[nH]3)CC2)cc1",
    "measured.on": "UniProt P47989",
    "pIC50": "< 4.70"
  }
]

In the following, a different compound is considered.
Which pIC50 value is on record for CCc1ccc2[nH]c(C(=O)N3CCN(c4ccc(OC)cc4)CC3)cc2c1 ?
< 4.70

----------
assay: Solubility; type: physicochemical
Catalogue of compounds with associated solubility

In the examples that follow, each entry is paired with its recorded solubility.
[
  {
    "compound": "COc1ccc(N2CCN(C(=O)c3cc4ccccc4[nH]3)CC2)cc1 [TG6-225]",
    "solubility": "< 25 µM"
  },
  {
    "compound": "COc1ccc(N2CCN(C(=O)c3cc4cc(C(C)=O)ccc4[nH]3)CC2)cc1 [TG6-161]",
    "solubility": "< 25 µM"
  }
]

In the following, a different compound is considered.
Which solubility value is on record for COc1ccc(N2CCN(C(=O)c3nc4cc(F)ccc4[nH]3)CC2)cc1 [TG6-179-3] ?
< 25 µM

----------
target: Nox2 (Homo sapiens (Human), UniProt P04839); experiment: Nox2 activity assay for primary screening (cell free, human neutrophil plasma membranes, LO12 luminescence); assay type: biochemical; conditions: Table 2; read-out: IC50 Nox2
Catalogue of molecules with associated IC50
Give a bare numeral; the unit nM is implied.

In the examples that follow, each entry is paired with its recorded IC50.
[
  {
    "molecule": "CNC(=O)c1ccc2[nH]c(C(=O)N3CCN(c4ccc(OC)cc4)CC3)cc2c1 [TG6-223]",
    "IC50 / nM": 500
  },
  {
    "molecule": "O=C(c1cc2cc(O)ccc2[nH]1)N1CCN(c2ccc(OC(F)(F)F)cc2)CC1 [TG6-205-2]",
    "IC50 / nM": 1500
  },
  {
    "molecule": "COc1ccc(N2CCN(C(=O)c3cc4ccccc4[nH]3)CC2)cc1 [TG6-225]",
    "IC50 / nM": 500
  },
  {
    "molecule": "COc1ccc(N2CCN(C(=O)c3cc4cc(C(=O)O)ccc4[nH]3)CC2)cc1 [TG6-236]",
    "IC50 / nM": 500
  },
  {
    "molecule": "COc1ccc(N2CCN(C(=O)c3nc4cc(OC)ccc4[nH]3)CC2)cc1 [TG6-228]",
    "IC50 / nM": 1000
  }
]

In the following, a different molecule is considered.
Which IC50 value is on record for COc1ccc(N2CCN(C(=O)c3cc4cc(C(N)=O)ccc4[nH]3)CC2)cc1F [TG6-254-1] ?
2000
